# melting point per entry

Consider the reported melting point for these compounds:
{"compound": "CCn1nc(C)c([N+](=O)[O-])c1C(N)=O", "melting point": "175 to 177 °C"}
{"compound": "CCCc1nc2c(N)nc(C)c(C)c2n1CCCCCS(=O)(=O)c1ccc(C(F)(F)F)cc1", "melting point": "172 to 174 °C"}
{"compound": "COC(=O)c1nc(Cl)c(F)c(N)c1/C=C/[Si](C)(C)C", "melting point": "103 to 105 °C"}
{"compound": "CCCCN(Cc1ccc(-c2ccccc2-c2nnnn2C(c2ccccc2)(c2ccccc2)c2ccccc2)cc1)c1ncncc1C(=O)OCC", "melting point": "142 to 144 °C"}

For the next question, use this compound.
Request: What does the data say about its melting point? Entry: O=C(O)c1cc2ccc(OCc3ccccc3)cc2oc1=O
Response: 196 to 197 °C
